# testSystem: MCR4 (human, UniProt P32245 1-332)
# Sequence (P32245 whole entry): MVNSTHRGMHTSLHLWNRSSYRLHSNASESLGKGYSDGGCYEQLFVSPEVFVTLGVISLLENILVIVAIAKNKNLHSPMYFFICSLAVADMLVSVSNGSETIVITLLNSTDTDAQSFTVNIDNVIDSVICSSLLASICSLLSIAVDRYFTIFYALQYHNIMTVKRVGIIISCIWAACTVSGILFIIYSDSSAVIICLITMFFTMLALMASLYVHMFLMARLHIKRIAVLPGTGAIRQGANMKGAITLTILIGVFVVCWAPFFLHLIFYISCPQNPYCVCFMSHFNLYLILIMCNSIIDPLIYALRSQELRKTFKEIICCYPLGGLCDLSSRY
# methodSummary: cell-based or functional assay
Square brackets hold non-standard residues; d marks the D form. Ends that are not written are not given here. Nle = CCCC[C@H](N)C(=O)O
readoutName: MCR4 EC50 (nM); cAMP production, LANCE cAMP assay, CHO-MCR4 cells, cell pool C

| binder | experimentalValue |
| --- | --- |
| SYSMEHFRWGKPVGKKRRAVKVYP [ACTH1-24-point-5] | 60 nM |
| SYSMEHFRWGKPVGKKAAAVKVYPGGGGSGGGGSSYS[Nle]EH[dF]RWGKPV (ends and bridges not checked) [ACTH1-24-point-3-5-10aa-NDP-α-MSH] | 3.8 nM |
| SYSMEHFRWGKPVGKKRRPVKVYPSYS[Nle]EH[dF]RWGKPV (ends and bridges not checked) [ACTH1-24-NDP-α-MSH] | 2.3 nM |
| SYSXEHXRWGKPVGKKRRPVKVYP (Nle and DPhe as printed: SYS-Nle-EH-DPhe-RWGKPVGKKRRPVKVYP) [NDP-ACTH] | 0.22 nM |
| SYSMEHFRWGKPVGKKAAAVKVYPGGGSSYS[Nle]EH[dF]RWGKPV (ends and bridges not checked) [ACTH1-24-point-3-5-4aa-NDP-α-MSH] | 2.4 nM |
| SYSMEHFRWGKPVGAARRPVKVYP [ACTH1-24-point-1-2] | 62 nM |
| SYSMEHFRWGKPVGKKRRPVKVYPGGGGSGGGGSSYS[Nle]EH[dF]RWGKPV (ends and bridges not checked) [ACTH1-24-linker-linker-NDP-α-MSH] | 1.8 nM |
| SYSMEHFRWGKPVGKKRRPVKVYPGGGSSYS[Nle]EH[dF]RWGKPV (ends and bridges not checked) [ACTH1-24-4aa-NDP-α-MSH] | 1.9 nM |
| SYSMEHFRWGKPVGAARRPVKVYPGGGSSYS[Nle]EH[dF]RWGKPV (ends and bridges not checked) [ACTH1-24-point-1-2-4aa-NDP-α-MSH] | 1.7 nM |
| SYSMEHFRWGKPVGAARRPVKVYPGGGGSGGSYS[Nle]EH[dF]RWGKPV (ends and bridges not checked) [ACTH1-24-point-1-2-7aa-NDP-α-MSH] | 2.3 nM |
| SYSMEHFRWGKPVGAARRPVKVYPSYS[Nle]EH[dF]RWGKPV (ends and bridges not checked) [ACTH1-24-point-1-2-NDP-α-MSH] | 1.4 nM |
